Biological target: DLG2_3, Q15700
Test: holdup assay
Set-up: key: below the threshold = too weak to quantify, mostly under pKd 3.1 to 4
Conditions: plain residues with an end cap or a label only (N-terminal biotin on a linker: ttds)
Please mark Criterion met if the recorded pKd is equal to or greater than 4, and Criterion not met if it falls below.

SGGKRKETLV [NET1, Q7Z628] : Criterion met
QRPYRRESEI [KCNJ12, Q14500] : Criterion met
PFRSRSPSEV [GPR6, P46095] : Criterion not met
KLVIKTETTV [RASSF6, Q6ZTQ3] : Criterion met

Could you please find out whether KQVVPFSSSV [GDA, Q9Y2T3] has pKd that meets 4 or exceeds it? Criterion not met

Could you please find out whether SSIDLWETAL [SLC15A5, A6NIM6] has pKd that meets 4 or exceeds it? Criterion not met

Could you please find out whether PSRDRKETSI [RALBP1, Q15311] has pKd that meets 4 or exceeds it? Criterion met

Could you please find out whether GRLLGLETNV [ARHGEF26, Q96DR7] has pKd that meets 4 or exceeds it? Criterion met

Could you please find out whether FVETQHQTQV [FAT3, Q8TDW7] has pKd that meets 4 or exceeds it? Criterion not met
